# procedure_summary: Worst-case calculation, Application 1 yoghurt pot lid exposure scenario
# condition_set: product SBDEV976; 100% migration; 2.0 g/m^2 dry film
Structures can show the parent of a compound that is named as a salt.
# Worst-case calculation as a percentage of SML (or restriction), Application 1 values compiled below
metric: Worst-case calculation as a percentage of SML (or restriction), Application 1

- molecule: "CCCCCCCC/C=C\\CCCCCCCC(=O)OCC [0000111-62-6, Ethyl Oleate]"
  readout_value: "9.42 percentage of SML (or restriction)"
- molecule: "c1ccc2ccccc2c1"
  readout_value: "0.2 percentage of SML (or restriction)"
- molecule: "CCCCOC(=O)CC(O)(CC(=O)OCCCC)C(=O)OCCCC [0000077-94-1, Tributyl citrate]"
  readout_value: "21.7 percentage of SML (or restriction)"
- molecule: "O=C1NCCN1"
  readout_value: "6.3 percentage of SML (or restriction)"
- molecule: "CCCC1OC(CCC)OC(CCC)O1 (centres unmarked)"
  readout_value: "24.0 percentage of SML (or restriction)"
